Experiment: Long-term stability in spiked pooled human plasma
Details: validation standard 2xLLOV
reportedEndpoint: Long-term stability, 3 month, -20°C Accuracy [%] (%)

{"columns": ["compound", "readoutValue"],
 "data": [
  ["CC(=O)Nc1cccc(-n2c(=O)n(C3CC3)c(=O)c3c(Nc4ccc(I)cc4F)n(C)c(=O)c(C)c32)c1", 105.5],
  ["Cc1c(C(=O)Nc2ccc(N3C[C@@H](C)O[C@@H](C)C3)nc2)cccc1-c1ccc(OC(F)(F)F)cc1", 96.1],
  ["CNCc1ccc(-c2[nH]c3cc(F)cc4c3c2CCNC4=O)cc1", 95.9],
  ["O=C(Nc1cnn2ccc(N3CCC[C@@H]3c3cc(F)ccc3F)nc12)N1CC[C@H](O)C1", 100.8],
  ["CO[C@@H]1[C@H](N(C)C(=O)c2ccccc2)C[C@H]2O[C@]1(C)n1c3ccccc3c3c4c(c5c6ccccc6n2c5c31)C(=O)NC4", 97.1],
  ["CCN(CC)CCNC(=O)c1c(C)[nH]c(/C=C2\\C(=O)Nc3ccc(F)cc32)c1C", 123.9],
  ["CNC(=O)c1ccc(N2C(=S)N(c3cnc(C#N)c(C(F)(F)F)c3)C(=O)C23CCC3)cc1F [Apalutamide]", 85.1]
]}

----------
Assay: Freeze-thaw stability in spiked pooled human plasma
Assay type: physicochemical
Details: validation standard ULOV
reportedEndpoint: Freeze-Thaw Accuracy [%] (%)

{"columns": ["compound", "reportedEndpoint", "readoutValue"],
 "data": [
  ["O=C(c1cc(Cc2n[nH]c(=O)c3ccccc23)ccc1F)N1CCN(C(=O)C2CC2)CC1", "Freeze-Thaw Accuracy [%]", 100.5],
  ["COc1cc2ncnc(Nc3ccc(F)c(Cl)c3)c2cc1NC(=O)/C=C/CN1CCCCC1", "Freeze-Thaw Accuracy [%]", 96.3],
  ["COc1cc2nccc(Oc3ccc(NC(=O)NC4CC4)c(Cl)c3)c2cc1C(N)=O", "Freeze-Thaw Accuracy [%]", 103.0],
  ["Nc1cccc2c1CN(C1CCC(=O)NC1=O)C2=O (stereo not shown) [Lenalidomide]", "Freeze-Thaw Accuracy [%]", 96.8],
  ["CC[C@H](Nc1ncnc2[nH]cnc12)c1nc2cccc(F)c2c(=O)n1-c1ccccc1", "Freeze-Thaw Accuracy [%]", 101.5],
  ["CN(C)C(=O)c1cc2cnc(Nc3ccc(N4CCNCC4)cn3)nc2n1C1CCCC1", "Freeze-Thaw Accuracy [%]", 92.4],
  ["CCN(CC)CCNC(=O)c1c(C)[nH]c(/C=C2\\C(=O)Nc3ccc(F)cc32)c1C", "Freeze-Thaw Accuracy [%]", 100.3],
  ["CC(C)(C)c1nc(-c2cccc(NS(=O)(=O)c3c(F)cccc3F)c2F)c(-c2ccnc(N)n2)s1", "Freeze-Thaw Accuracy [%]", 97.6],
  ["CNC(=O)c1ccc(N2C(=S)N(c3ccc(C#N)c(C(F)(F)F)c3)C(=O)C2(C)C)cc1F [Enzalutamide]", "Freeze-Thaw Accuracy [%]", 96.1],
  ["Cc1c(C(=O)Nc2ccc(N3C[C@@H](C)O[C@@H](C)C3)nc2)cccc1-c1ccc(OC(F)(F)F)cc1", "Freeze-Thaw Accuracy [%]", 99.0],
  ["CC1(C)CCC(CN2CCN(c3ccc(C(=O)NS(=O)(=O)c4ccc(NCC5CCOCC5)c([N+](=O)[O-])c4)c(Oc4cnc5[nH]ccc5c4)c3)CC2)=C(c2ccc(Cl)cc2)C1", "Freeze-Thaw Accuracy [%]", 101.9],
  ["CCc1cc2c(cc1N1CCC(N3CCOCC3)CC1)C(C)(C)c1[nH]c3cc(C#N)ccc3c1C2=O", "Freeze-Thaw Accuracy [%]", 96.5],
  ["COc1cc2nccc(Oc3ccc(NC(=O)Nc4cc(C)on4)c(Cl)c3)c2cc1OC", "Freeze-Thaw Accuracy [%]", 98.1],
  ["COc1cc2nccc(Oc3ccc(NC(=O)C4(C(=O)Nc5ccc(F)cc5)CC4)cc3)c2cc1OC [Cabozantinib]", "Freeze-Thaw Accuracy [%]", 95.0],
  ["CCOc1cc2ncc(C#N)c(Nc3ccc(OCc4ccccn4)c(Cl)c3)c2cc1NC(=O)/C=C/CN(C)C", "Freeze-Thaw Accuracy [%]", 87.2],
  ["C[C@H]1Oc2cc(cnc2N)-c2c(nn(C)c2C#N)CN(C)C(=O)c2ccc(F)cc21", "Freeze-Thaw Accuracy [%]", 97.6]
]}
